Where these numbers come from: patent US7741314B2

Tested on: Human promyelocytic leukemia (HL60) cells
Experiment: HL-60 differentiation (nitro blue tetrazolium reduction)
Type: cell-based
Conditions: Homo sapiens, 96 h; HL-60 cells, four days after treatment; FIG. 2; read-out: EC50, HL-60 cell differentiation
pEC50: −log10 of the molar value.
measurement-kind: pEC50

[[record]]
chemical_structure = "C=C1[C@H](O)CC(=C/C=C2\\CCC[C@]3(C)[C@@H]([C@H](C)/C=C/C[C@H](C)O)CC[C@@H]23)C[C@H]1O"
number = 9.00


* * *

Test system: Human promyelocytic leukemia (HL60) cells
Experiment: HL-60 differentiation (nitro blue tetrazolium reduction)
Assay type: cell-based
Conditions: HL-60 cells, four days after treatment; FIG. 2; read-out: EC50, HL-60 cell differentiation
Protocol: The study drugs were dissolved in ethanol and the concentrations determined using UV spectrophotometry. […] HL60 cells were plated at 1.2×10^5 cells/ml. […] The percentage of differentiated cells was determined by counting a total of 200 cells and recording the number that contained intracellular black-blue formazan deposits. Verification of differentiation to monocytic cells was determined by measuring phagocytic activity (data not shown).
pEC50: −log10 of the molar value.
measurement-kind: pEC50

[[record]]
compound = "C=C1/C(=C\\C=C2/CCC[C@]3(C)[C@@H]([C@H](C)CCCC(C)(C)O)CC[C@@H]23)C[C@@H](O)C[C@@H]1O [1,25(OH)2D3, 1α,25-dihydroxyvitamin D3, reference compound]"
number = 8.70

